Parameter self-cleavage: see the listing below.
B1: Hairpin Ribozyme (parent)
chain: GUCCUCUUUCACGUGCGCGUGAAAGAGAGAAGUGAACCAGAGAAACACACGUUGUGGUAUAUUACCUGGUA

# Variants of: B1
# Test method notes: self-cleavage, relative activity (ratio to wild type); higher = more cleavage; co-transcriptional
Write no unit; give the number alone.

Worked set:
Mutant designation: U2C A41U
Endpoint name: self-cleavage
Experimental value: 0.283
//
Mutant designation: C38A G68U
Endpoint name: self-cleavage
Experimental value: 0.735
//
Mutant designation: U2C A36G
Endpoint name: self-cleavage
Experimental value: 0.212
//
Mutant designation: C18U A39G
Endpoint name: self-cleavage
Experimental value: 0.375
//
Mutant designation: U2A G68A
Endpoint name: self-cleavage
Experimental value: 0.0992
//
Mutant designation: C12G A49C
Endpoint name: self-cleavage
Experimental value: 0.196
//
Mutant designation: U8C C46A
Endpoint name: self-cleavage
Experimental value: 0.102
//
Mutant designation: C50U G54U
Endpoint name: self-cleavage
Experimental value: 0.905
//
Mutant designation: A49C U53G
Endpoint name: self-cleavage
Experimental value: 0.0631
//
Mutant designation: U5C G32C
Endpoint name: self-cleavage
Experimental value: 0.0586

stdin: Requested read-out: self-cleavage. Entry: A47G U62G
stdout: 0.0586
